Target: glucocerebrosidase (Gcase) (Homo sapiens, UniProt P04062)
Construct: micellar solution containing 10 nM GCase and 100 nM saposin C
Sequence (P04062 40-536): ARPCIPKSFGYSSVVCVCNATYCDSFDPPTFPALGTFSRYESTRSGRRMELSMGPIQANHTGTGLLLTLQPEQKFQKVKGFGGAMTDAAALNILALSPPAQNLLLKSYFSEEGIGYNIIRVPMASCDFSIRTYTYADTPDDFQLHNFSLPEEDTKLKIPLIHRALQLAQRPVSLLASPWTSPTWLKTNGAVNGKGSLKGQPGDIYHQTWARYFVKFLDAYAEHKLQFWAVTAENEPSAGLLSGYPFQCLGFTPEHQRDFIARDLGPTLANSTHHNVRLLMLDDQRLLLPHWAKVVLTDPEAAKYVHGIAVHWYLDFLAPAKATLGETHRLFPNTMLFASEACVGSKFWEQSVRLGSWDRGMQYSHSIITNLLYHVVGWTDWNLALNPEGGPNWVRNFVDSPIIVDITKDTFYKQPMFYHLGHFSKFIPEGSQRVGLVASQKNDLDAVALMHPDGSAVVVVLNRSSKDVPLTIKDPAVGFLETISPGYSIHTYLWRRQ
Assay: Glucocerebrosidase (Gcase) activation assay, 4-methylumbelliferyl-beta-D-glucopyranoside substrate, fluorescence readout
Assay type: biochemical
Conditions: test compound at 0.1 μM; read-out: Percent Gcase Activation, 0.1 μM Test Compound
measurement_name: activation at 0.1 µM

Completed entries (count: 8):
CCCCO[C@H]1CC[C@H](NC(=O)c2ccn3c(COC)cc(C)nc23)CC1 [III-33] :: 10 to 20%
Cc1cc(C)n2ccc(C(=O)NC3CCC4(CCOCC4)CC3)c2n1 [III-140] :: < 10%
CCC(C)(NC(=O)c1ccn2c(C)cc(C)nc12)c1ccccc1 (stereo not shown) [III-287] :: > 20%
Cc1cc(C)n2ccc(C(=O)NC3CCC(Oc4cc(C)on4)C3)c2n1 (stereo not shown) [III-243] :: < 10%
C#Cc1ccc(C(C)(C)NC(=O)c2ccn3c(COC)cc(COC)nc23)cc1 [III-156] :: 10 to 20%
C#Cc1ccc(C(C)(C)NC(=O)c2ccn3c(C)cc(COC)nc23)cc1 [III-61] :: > 20%
CO[C@H]1CC[C@H](NC(=O)c2ccn3c(C)cc(C)nc23)CC1 [III-89] :: < 10%
Cc1cc(C2CC2)n2ccc(C(=O)N[C@H]3CC[C@H](OCCCCC(F)(F)F)CC3)c2n1 [III-47] :: < 10%

Entry under review: Cc1cc(Cl)nc2c(C(=O)N[C@H]3CC[C@H](OCC(C)C)CC3)ccn12 [III-73] . Reported activation at 0.1 µM?
> 20%

Entry under review: Cc1cc(C)n2ccc(C(=O)Nc3ccc4c(c3)CCC4)c2n1 [III-148] . Reported activation at 0.1 µM?
> 20%

Entry under review: Cc1cc(C)n2ccc(C(=O)NC3c4ccccc4C4CC3C4)c2n1 (stereo not shown) [III-136] . Reported activation at 0.1 µM?
> 20%

Entry under review: COCCOCc1cc(C)n2ccc(C(=O)N[C@H]3CCCc4ccccc43)c2n1 [III-43] . Reported activation at 0.1 µM?
10 to 20%

Entry under review: C#Cc1ccc(C(C)(C)NC(=O)c2ccn3c(COC)cc(C)nc23)cc1 [III-62] . Reported activation at 0.1 µM?
> 20%

Entry under review: Cc1cc(C)n2ccc(C(=O)Nc3ccc4c(c3)C(O)CC4)c2n1 (stereo not shown) [III-222] . Reported activation at 0.1 µM?
< 10%

Entry under review: Cc1cc(C)n2ccc(C(=O)NC3CCC(c4cccs4)CC3)c2n1 (stereo not shown) [III-187] . Reported activation at 0.1 µM?
> 20%

----------
Biological target: glucocerebrosidase (Gcase) (Homo sapiens, UniProt P04062)
Construct: micellar solution containing 10 nM GCase and 100 nM saposin C
Assay: Glucocerebrosidase (Gcase) activation assay, 4-methylumbelliferyl-beta-D-glucopyranoside substrate, fluorescence readout
Type: biochemical
Details: test compound at 1.0 μM; read-out: Percent Gcase Activation, 1 μM Test Compound
measurement_name: activation at 1 µM

CCCCCO[C@H]1CC[C@H](NC(=O)c2ccn3c(C)ccnc23)CC1 [III-260] :: > 60%

# value lookup — system glucocerebrosidase (Gcase) (Homo sapiens, UniProt P04062), readout activation at 1 µM, item CO[C@H]1CC[C@H](NC(=O)c2ccn3c(C)cc(C)nc23)CC1 [III-89]
< 30%

# value lookup — system glucocerebrosidase (Gcase) (Homo sapiens, UniProt P04062), readout activation at 1 µM, item Cc1cc(C)n2c(F)cc(C(=O)Nc3ccc(-c4cocn4)cc3)c2n1 [III-271]
> 60%
